ASSAY SYSTEM: T1, N-hCD73-his (N-terminal domain of human CD73, residues 26-336, His tag) (human, UniProt P21589 26-336)
T1 sequence: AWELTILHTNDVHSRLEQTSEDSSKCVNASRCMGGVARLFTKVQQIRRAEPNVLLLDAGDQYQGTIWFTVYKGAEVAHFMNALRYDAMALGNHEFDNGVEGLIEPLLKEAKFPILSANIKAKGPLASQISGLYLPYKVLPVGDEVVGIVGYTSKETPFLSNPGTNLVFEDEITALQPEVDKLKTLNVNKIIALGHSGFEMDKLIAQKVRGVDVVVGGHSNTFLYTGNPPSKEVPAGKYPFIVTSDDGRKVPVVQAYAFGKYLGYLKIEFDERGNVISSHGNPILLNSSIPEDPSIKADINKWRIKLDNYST
METHOD DESCRIPTION: SPR, mAb captured on protein A
MEASUREMENT NAME: koff (s⁻¹)

{"columns": ["BINDER", "MEASUREMENT NAME", "READOUT UNIT", "ASSAY VALUE"],
 "data": [
  ["10D2 (antibody, human IgG4, kappa, V domains shown, also called 10D2-2) VH: QVQLVESGGGVVQPGRSLRLSCAASGFTFSNYGLHWVRQAPGKGLEWVAVIRYDGSNKYYADSVKGRFTISRDNSKNTLYLQMSSLRAEDTAVYYCARGGSSWYPDGLDVWGQGTTVTVSS VL: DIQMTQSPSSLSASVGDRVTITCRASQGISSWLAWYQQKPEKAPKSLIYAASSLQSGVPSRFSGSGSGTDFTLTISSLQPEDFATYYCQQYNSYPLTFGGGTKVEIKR", "koff", "s⁻¹", 0.00095],
  ["7A11 (antibody, human IgG1, kappa, V domains shown, IgG1za; also called 7A11-1) VH: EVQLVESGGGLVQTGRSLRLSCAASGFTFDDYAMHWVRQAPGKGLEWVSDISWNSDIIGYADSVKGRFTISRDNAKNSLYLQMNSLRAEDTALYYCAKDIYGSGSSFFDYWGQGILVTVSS VL: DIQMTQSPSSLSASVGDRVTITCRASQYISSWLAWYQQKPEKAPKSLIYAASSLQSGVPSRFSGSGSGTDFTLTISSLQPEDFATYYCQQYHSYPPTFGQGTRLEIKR", "koff", "s⁻¹", 0.00038],
  ["11A6 (antibody, human IgG1, kappa, V domains shown, IgG1za; also called 11A6-1) VH: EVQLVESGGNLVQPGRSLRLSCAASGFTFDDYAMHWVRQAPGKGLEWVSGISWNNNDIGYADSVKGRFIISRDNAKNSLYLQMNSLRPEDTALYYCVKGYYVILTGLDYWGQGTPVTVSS VL: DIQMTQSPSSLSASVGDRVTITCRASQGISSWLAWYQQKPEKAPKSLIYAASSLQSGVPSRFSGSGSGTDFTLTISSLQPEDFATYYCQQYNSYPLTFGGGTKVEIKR", "koff", "s⁻¹", 0.0076]
]}
